Recorded values, source patent US20250034269A1.

Target: T1, human LTBR ECD (S28-M227) N- and C-terminally extended-Fc-fusion wt kih HRYF-Avi-His biotinylated (P1AE7979) (human, UniProt P0DOX5 223-449 = IgG part, biotinylated avi tag)
T1 construct: also called hu LTBR
Experiment: SPR, IgG captured;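 note: rate constants and KD obtained by fitting double-referenced sensorgrams to a 1:1 Langmuir binding model, with dissociation followed for 600 s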
readout.name: kon

[[record]]
binder = "P1AE9459 (antibody, human IgG1, kappa, L234A L235A, V domains shown, human IgG1 PG LALA; from transgenic rabbit immunization) VH: EVQLVESGGGLVQPGGSLRLSCAASGFTFSSYTMNWVRQAPGKGLEWVSGVAPSGDRTYYTDSVKGRFTISRDNAKNTLDLQMTSLRAEDAAIYICAQGFAFTNWGQGTMVTVSS VL: DIQMTQSPSSLSASVGDRVTITCRASQGISSALAWFQQKPGKAPKRLIFDASSLDSGVPSRFSGSGSGTDFTLTISSLQPEDFATYYCQQYNNYPLTFGGGTKVEMKR"
readout_name = "kon"
value_reported = "795000 M⁻¹ s⁻¹"

[[record]]
binder = "P1AE9452 (antibody, human IgG1, kappa, L234A L235A, V domains shown, human IgG1 PG LALA; from transgenic rabbit immunization; also called LTBR (9452)) VH: EVQLLESGGGLVQPGGSLRLSCAAAGFTFSSYPMTWVRQAPGKGLEWVSLISPSGATTYYADSVKGRFTISRDTSKNTLYLQMNSLRAEDTAVYYCAKNHYPDDVIIKNYYFYGVDVWGQGTTVTVSS VL: DIQMTQSPSSLSASVGDRVTITCRASQDISNYLNWYQQKPGKAPKSLIYAASSLQSGVPSRFSGSGSGTDFTLTISSLQPEDFANYYCQQTHTIPYSFGQGTNLEIKR"
readout_name = "kon"
value_reported = "173000 M⁻¹ s⁻¹"

[[record]]
binder = "P1AF0079 (antibody, human IgG1, kappa, L234A L235A, V domains shown, human IgG1 PG LALA; from transgenic rabbit immunization; also called LTBR (0079)) VH: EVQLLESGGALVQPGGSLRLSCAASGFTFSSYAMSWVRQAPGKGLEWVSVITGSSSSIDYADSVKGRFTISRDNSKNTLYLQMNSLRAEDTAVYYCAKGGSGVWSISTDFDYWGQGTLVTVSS VL: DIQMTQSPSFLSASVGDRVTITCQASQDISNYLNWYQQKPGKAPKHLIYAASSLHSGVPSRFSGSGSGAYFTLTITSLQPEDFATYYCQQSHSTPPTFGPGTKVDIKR"
readout_name = "kon"
value_reported = "79400 M⁻¹ s⁻¹"

[[record]]
binder = "P1AF0080 (antibody, human IgG1, kappa, L234A L235A, V domains shown, human IgG1 PG LALA; from transgenic rabbit immunization; also called LTBR (0080)) VH: EVQLLESGGGLVQPGGSLRLSCAASGFTFSYYAMTWVRQAPGKGLEWIGVINSGGGTYYTDSVKGRFTMSRDNSKNTLYLQVNSLRAEDTAVYYCAKASTADVWGQGTTVTVSS VL: DIQMTQSPSSLSASVGDRVTITCQASQGISNYLSWYQQKPGKAPKRLIFAASSLESGVPSRFSGSGSGTDFTLTISSLQPEDFATYYCQQYNSYSLTFGGGTKLEIKR"
readout_name = "kon"
value_reported = "646000 M⁻¹ s⁻¹"

[[record]]
binder = "P1AE1873 (CBE11) (antibody, human IgG1, kappa, L234A L235A, V domains shown) VH: EVQLVESGGGLVKPGGSLRLSCAASGFTFSDYYMYWFRQAPGKGLEWVATISDGGSYTYYPDSVKGRFTISRDNAKNSLYLQMSSLRAEDTAVYYCAREENGNFYYFDYWGQGTTVTVSS VL: DIQMTQSPSSLSASVGDRVTITCKAGQDIKSYLSWYQQKPGKAPKLLIYYATRLADGVPSRFSGSGSGTDYTLTISSLQPEDFATYYCLQHGESPWTFGGGTKLEIKR"
readout_name = "kon"
value_reported = "4.89e+06 M⁻¹ s⁻¹"

[[record]]
binder = "P1AF0064 (antibody, human IgG1, kappa, L234A L235A, V domains shown, human IgG1 PG LALA constant regions; V domains from rat immunization; also called LTBR (0064)) VH: EVQLQQYGAELGKPGTSVKLSCKVSGYNIGNTYIHWVIQRPGKGLEWIGRIDPTNGNTICTEKFKNKATLTADLSSNTAYMQLSQLKSDDTAIYFCAPTTLTTPDSFAYWGQGTLVTVSS VL: DIQMTQSPSQLSASVGDRVTLSCKASQNIYKYLNWYQQKLGEAPRLLIYSTNILQTGIPSRFSGSGSGTDYTLTISSLQPEDAATYFCQKYYSGFTFGSGTKLEMKR"
readout_name = "kon"
value_reported = "1.45e+06 M⁻¹ s⁻¹"

[[record]]
binder = "P1AE9457 (antibody, human IgG1, kappa, L234A L235A, V domains shown, human IgG1 PG LALA; from transgenic rabbit immunization; also called LTBR (9457)) VH: EVQLLESGGGLVQPGGSLRLSCAASGFTFSNYAMTWVRQAPGKGLEWVSEISGSGGSTYYADSVKGRFTISRDNSKNTLYLQMNSLRAEDTAVYYCAKDDDGAYGDTMDVWGQGTTVTVSS VL: DIQMTQSPSSLSASIGDRVTITCRASQDISNYLNWYQQKPGKAPKLLIYAASALQSGVPSRFSGSGSGTDFTLTISSLQPEDFATYYCQHYKSYPYTFGQGTKVEIRR"
readout_name = "kon"
value_reported = "68500 M⁻¹ s⁻¹"

